Assay: Pharmacokinetic study on the tested compound in SD male rats
Format: in vivo
Settings: Sprague-Dawley (SD), rat, plasma, IV 1 mpk/PO 2 mpk
Response field label: string, one of MET (clearance strictly below 50 mL/min/kg) or NOT MET.

COc1cc([C@@H](C)C(=O)N2CC[C@H](Nc3ccc(-c4ncccn4)c(C)n3)C2)c(Cl)cn1 MET
COc1cc([C@@H](C)C(=O)N2CC[C@H](Nc3ccc(-c4ncccn4)c(C)n3)C2)c(F)cn1 NOT MET
COc1cc([C@@H](C)C(=O)N2C[C@@H](Nc3ccc(-c4cn(C)nn4)c(C)n3)C3(CC3)C2)c(Cl)cn1 MET
COc1cc([C@@H](C)C(=O)N2C[C@@H](Nc3ccc(-c4ncccn4)c(C)n3)C3(CC3)C2)c(F)cn1 MET
COc1cc([C@@H](C)C(=O)N2C[C@@H](Nc3ccc(-c4ncccn4)c(C)n3)C3(CC3)C2)c(Cl)cn1 MET
COc1cc([C@@H](C)C(=O)N2C[C@H](C)[C@H](Nc3ccc(-c4ncccn4)c(C)n3)C2)c(Cl)cn1 NOT MET

I wonder whether COc1cc([C@@H](C)C(=O)N2C[C@H](C)[C@H](Nc3ccc(-c4ncccn4)c(C)n3)C2)c(F)cn1 has clearance below 50 mL/min/kg. Can you tell?
NOT MET

Would you mind doing COc1cc([C@@H](C)C(=O)N2C[C@@H](Nc3ccc(-c4cn(C)c(OC(F)F)n4)c(C)n3)C3(CC3)C2)c(F)cn1 as well?
MET

Would you mind doing COc1cc([C@@H](C)C(=O)N2CC[C@H](Nc3ccc(-c4cn(C)c(OC(F)F)n4)c(C)n3)C2)c(F)cn1 as well?
NOT MET

* * *

Assay: Pharmacokinetic study on the tested compound in SD male rats
Assay type: in vivo
Conditions: Sprague-Dawley (SD), rat, plasma, IV 1 mpk/PO 2 mpk
measured_property: half-life
Write the quantity with the unit trailing the number.

COc1cc([C@@H](C)C(=O)N2CC[C@H](Nc3ccc(-c4ncccn4)c(C)n3)C2)c(F)cn1 42.6 min

Please look up its half-life: COc1cc([C@@H](C)C(=O)N2C[C@@H](Nc3ccc(-c4cn(C)nn4)c(C)n3)C3(CC3)C2)c(Cl)cn1
39 min

Would you mind doing COc1cc([C@@H](C)C(=O)N2C[C@H](C)[C@H](Nc3ccc(-c4ncccn4)c(C)n3)C2)c(Cl)cn1 as well?
15 min

Would you mind doing COc1cc([C@@H](C)C(=O)N2CC[C@H](Nc3ccc(-c4cn(C)c(OC(F)F)n4)c(C)n3)C2)c(F)cn1 as well?
72 min

* * *

Biological target: MC4R (Homo sapiens)
Experiment: Assay of MC4R antagonist activity in cells in vitro (cAMP assay, Melanotan I stimulation)
Settings: flipin-293-MC4 cell line, Melanotan I as agonist
measured_property: pIC50
Note on units: pIC50 is unitless, being -log10 of a concentration expressed in mol/L.

Fill in the recorded pIC50 for this compound, with MC4R (Homo sapiens) as test system: COc1ccc2nc(N[C@@H]3CN(C(=O)[C@H](C)c4cc(OC)ncc4Cl)CC34CC4)nc(C)c2c1 [Compound 118]
8.43

Would you mind doing COc1cc([C@@H](C)C(=O)N2CCC(Nc3ccc(-c4ncccn4)c(C)n3)C2)c(F)cn1 (some centres unmarked) [Compound 001] as well?
7.79

Would you mind doing COc1cc([C@@H](C)C(=O)N2C[C@@H](Nc3ccc(-c4cn5c(n4)CCC5)c(C)n3)C3(CC3)C2)c(Cl)cn1 [Compound 188] as well?
8.68

* * *

Assay: Pharmacokinetic study on the tested compound in SD male rats
Assay type: in vivo
Conditions: Sprague-Dawley (SD), rat, plasma, IV 1 mpk/PO 2 mpk
Answer 0.0 if AUC is under 300 ng·h/mL, and 1.0 if it is 300 ng·h/mL or more.

COc1cc([C@@H](C)C(=O)N2CC[C@H](Nc3ccc(-c4ncccn4)c(C)n3)C2)c(F)cn1 1.0
COc1cc([C@@H](C)C(=O)N2C[C@H](C)[C@H](Nc3ccc(-c4ncccn4)c(C)n3)C2)c(Cl)cn1 0.0
COc1cc([C@@H](C)C(=O)N2C[C@@H](Nc3ccc(-c4ncccn4)c(C)n3)C3(CC3)C2)c(F)cn1 1.0
COc1cc([C@@H](C)C(=O)N2C[C@@H](Nc3ccc(-c4ncccn4)c(C)n3)C3(CC3)C2)c(Cl)cn1 1.0
COc1cc([C@@H](C)C(=O)N2CC[C@H](Nc3ccc(-c4ncccn4)c(C)n3)C2)c(Cl)cn1 0.0
COc1cc([C@@H](C)C(=O)N2C[C@@H](Nc3ccc(-c4cn(C)c(OC(F)F)n4)c(C)n3)C3(CC3)C2)c(F)cn1 0.0

Is AUC for COc1cc([C@@H](C)C(=O)N2C[C@H](C)[C@H](Nc3ccc(-c4ncccn4)c(C)n3)C2)c(F)cn1 at or above 300 ng·h/mL?
1.0

Would you mind doing COc1cc([C@@H](C)C(=O)N2CC[C@H](Nc3ccc(-c4cn(C)c(OC(F)F)n4)c(C)n3)C2)c(F)cn1 as well?
0.0

Would you mind doing COc1cc([C@@H](C)C(=O)N2C[C@@H](Nc3ccc(-c4cn(C)nn4)c(C)n3)C3(CC3)C2)c(Cl)cn1 as well?
1.0

* * *

A collection of molecules and their measured pIC50
Molecular target: MC4R (Homo sapiens, UniProt P32245)
Construct: expressed in transfected cells; host or cells: flipin-293-MC4 (Flp-In 293 host, hygromycin selection)
Sequence (P32245 whole entry): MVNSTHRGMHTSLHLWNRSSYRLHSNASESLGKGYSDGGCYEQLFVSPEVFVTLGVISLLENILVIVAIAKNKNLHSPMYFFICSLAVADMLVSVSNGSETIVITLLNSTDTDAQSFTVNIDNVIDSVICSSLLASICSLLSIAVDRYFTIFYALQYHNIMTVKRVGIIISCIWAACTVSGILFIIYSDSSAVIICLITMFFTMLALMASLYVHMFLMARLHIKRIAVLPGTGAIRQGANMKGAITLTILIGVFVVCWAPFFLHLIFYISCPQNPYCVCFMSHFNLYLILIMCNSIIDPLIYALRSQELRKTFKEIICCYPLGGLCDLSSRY
Assay: Assay of MC4R antagonist activity in cells in vitro (cAMP assay, Melanotan I stimulation)
Format: cell-based
Conditions: flipin-293-MC4 cell line, Melanotan I as agonist
Note on units: pIC50 is unitless, being -log10 of a concentration expressed in mol/L.

# annotated cases, reported pIC50 shown
COc1cc([C@@H](C)C(=O)N2C[C@@H](Nc3ccc(-c4ncn(C)n4)c(C)n3)C3(CC3)C2)c(F)cn1 8.89
COc1ccc2nc(N[C@@H]3CN(C(=O)[C@H](C)c4cc(OC)ncc4F)CC34CC4)nc(C)c2c1 8.56
COc1cc([C@@H](C)C(=O)N2CC[C@H](Nc3ccc(-c4ncccn4)c(C)n3)C2)c(Cl)cn1 8.74
COc1cc([C@@H](C)C(=O)N2C[C@@H](Nc3ccc(-c4nccc(C(F)F)n4)c(C)n3)C3(CC3)C2)c(F)cn1 8.52
COc1cc([C@@H](C)C(=O)N2C[C@@H](Nc3ccc(-c4nc(C)n(C)n4)c(C)n3)C3(CC3)C2)c(F)cn1 8.97

Fill in the recorded pIC50 for this molecule, with MC4R (Homo sapiens, UniProt P32245) as test system: COc1cc([C@@H](C)C(=O)N2C[C@@H](Nc3ccc(-c4cn(C)nn4)c(C)n3)C3(CC3)C2)c(Cl)cn1
8.54

Would you mind doing COc1cc([C@@H](C)C(=O)N2C[C@@H](Nc3ccc(-c4cn(C(F)F)nn4)c(C)n3)C3(CC3)C2)c(Cl)cn1 as well?
8.31

* * *

A collection of compounds and their measured pIC50
Biological target: MC4R (Homo sapiens)
Test: Assay of MC4R antagonist activity in cells in vitro (cAMP assay, Melanotan I stimulation)
Details: flipin-293-MC4 cell line, Melanotan I as agonist
Note on units: pIC50 is unitless, being -log10 of a concentration expressed in mol/L.

COc1cc([C@@H](C)C(=O)N2C[C@@H](Nc3ccc(-c4ncccn4)c(C)n3)C3(CC3)C2)c(Cl)cn1 8.61
COc1cc([C@@H](C)C(=O)N2C[C@@H](Nc3ccc(-c4nccc(C#N)n4)c(C)n3)C3(CC3)C2)c(F)cn1 8.67
COc1cc([C@@H](C)C(=O)N2CC[C@H](Nc3ccc(-c4nccc(C#N)n4)c(C)n3)C2)c(F)cn1 8.47

Please look up its pIC50: COc1cc([C@@H](C)C(=O)N2C[C@@H](Nc3ccc(-c4cn(C)c(OC(F)F)n4)c(C)n3)C3(CC3)C2)c(F)cn1
9.27

Would you mind doing COc1cc([C@@H](C)C(=O)N2C[C@@H](Nc3ccc(-c4ncccn4)c(C)n3)C3(CC3)C2)c(F)cn1 as well?
8.37

Would you mind doing COc1cc([C@@H](C)C(=O)N2C[C@@H](Nc3ccc(-c4ncn(C)n4)c(C)n3)C3(CC3)C2)c(Cl)cn1 as well?
8.48

Would you mind doing COc1cc([C@@H](C)C(=O)N2C[C@@H](Nc3ccc(-c4cn(C)c(C(C)(C)O)n4)c(C)n3)C3(CC3)C2)c(F)cn1 as well?
8.80

* * *

A collection of compounds and their measured pIC50
Target: MC4R (Homo sapiens, UniProt P32245)
Assay: Assay of MC4R antagonist activity in cells in vitro (cAMP assay, Melanotan I stimulation)
Conditions: flipin-293-MC4 cell line, Melanotan I as agonist
Note on units: pIC50 is unitless, being -log10 of a concentration expressed in mol/L.

# annotated cases, reported pIC50 shown
compound	pIC50
COc1cc([C@@H](C)C(=O)N2CC[C@H](Nc3ccc(-c4ncccn4)c(C)n3)C2)c(Br)cn1 [Compound 200]	9.01
COc1cc([C@@H](C)C(=O)N2C[C@@H](Nc3ccc(-c4cn(C)c(OC(F)F)n4)c(C)n3)C3(CC3)C2)c(Cl)cn1 [Compound 186]	9.26
COc1cc([C@@H](C)C(=O)N2C[C@@H](Nc3ccc(-c4cn(C)c(C(C)(C)O)n4)c(C)n3)C3(CC3)C2)c(Cl)cn1 [Compound 182]	9.07
COc1cc([C@@H](C)C(=O)N2C[C@@H](Nc3ccc(-c4cn5c(n4)C(F)(F)CC5)c(C)n3)C3(CC3)C2)c(Cl)cn1 [Compound 190]	8.96
COc1cc([C@@H](C)C(=O)N2C[C@H](C)[C@H](Nc3ccc(-c4ncccn4)c(C)n3)C2)c(F)cn1 [Compound 051-1]	8.53

Shifting focus to the compound that follows.
Fill in the recorded pIC50 for this compound, with MC4R (Homo sapiens, UniProt P32245) as test system: COc1cc([C@@H](C)C(=O)N2C[C@@H](Nc3ccc(-c4ncccn4)c(C)n3)C3(CC3)C2)c(Br)cn1 [Compound 201]
8.85
